Hey, just so you know, these numbers are from paper PMC8769072.

target: ANKRA2 142-313, Q9H9E1
Sequence (Q9H9E1 142-313): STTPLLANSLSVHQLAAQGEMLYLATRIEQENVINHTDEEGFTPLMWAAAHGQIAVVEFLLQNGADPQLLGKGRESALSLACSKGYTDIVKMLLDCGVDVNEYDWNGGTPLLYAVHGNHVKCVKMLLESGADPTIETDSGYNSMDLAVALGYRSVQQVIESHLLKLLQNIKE
outcomeMeasure: selected by phage display

Please review the following examples before continuing.
binder | selected by phage display
PQPKLPYLPTFPFSMP [NOBOX, O60393] | confidence 2 (active)
SMLKLPDLPQNSVKLQ [KIAA0586, Q9BVV6] | confidence 3 (active)
AAKPSLPALDPMSMLF [TSHZ3, Q63HK5] | confidence 3 (active)
MSARPSLPPLPAKPAG [SERTAD4-AS1, Q5TG53] | confidence 2 (active)
LPNLPNLNLNLPAPHI [GORASP2, Q9H8Y8] | confidence 2 (active)

### Prompt Given the binder QASLQAMSLPELSGAL [ANKS3, Q6ZW76] , write its reported selected by phage display.
### Response confidence 2 (active)

### Prompt Given the binder VELPALPSLPTLPTLP [PRX, Q9BXM0] , write its reported selected by phage display.
### Response confidence 2 (active)

### Prompt Given the binder DSALSLPPLSLPHPHP [NTM-AS1, Q6ZSK4] , write its reported selected by phage display.
### Response confidence 3 (active)
